The reported numbers originate from a melting point compilation (Tetko et al.; mined from patent text by program, amines drawn as free bases though some values may be those of a salt).

RECORDED METRIC: melting point

Cc1cncc(CN2CCC(=C3c4ccc(Cl)cc4CCc4cccnc43)CC2)c1 = 58 to 61 °C
COc1c(N2CCNCC2)c(F)cc2c(=O)c(C(=O)O)c3n(c12)C(C)S3 (stereo not given) = 278 to 280 °C
CCN(c1c(Cl)c(C(F)(F)F)cc2[nH]c(=O)c(=O)[nH]c12)S(C)(=O)=O = > 300 °C

--- query ---
Inquiry: What melting point value was documented for this compound, CCCCOc1cc(CN)cc(S(N)(=O)=O)c1Cc1ccccc1 ?
Reply text: 176 to 179 °C

---

Quick reference for melting point among some compounds

CN(C)S(=O)(=O)c1ccc(COc2cccc3c2CN(C2CCC(=O)NC2=O)C3=O)cc1 (stereo not given) = 261 to 263 °C
COc1ccc(C2N3CCSC3=NC2(O)c2ccc(F)cc2)cc1 (stereo not given) = 150 to 151 °C
CCOC(=O)c1cn(C2CC2)c2c(C)c(F)c(F)c(N)c2c1=O = 182 to 186 °C
COC(=O)C(C)(C)CCCOc1cc(C)c(OCc2ccccc2)cc1C = 75.5 to 76.5 °C
CC(C)C(=O)c1cn(Cc2c(F)cccc2F)c2sc(-c3ccc([N+](=O)[O-])cc3)c(CN(C)Cc3ccccc3)c2c1=O = 158 to 162 °C

Inquiry: What melting point value was documented for this compound, Cc1onc(-c2ccccc2)c1-c1ccc(S(=O)(=O)NC(=O)CN)cc1 ?
Reply text: 231 to 235 °C

Inquiry: What melting point value was documented for this compound, Cc1cc2c(cc1C1=NNC(=O)CC1C)NC(=O)C(C)O2 (stereo not given) ?
Reply text: 190 to 191 °C

Inquiry: What melting point value was documented for this compound, O=C1CCC(N2C(=O)c3cccc(NC(=O)Cc4ccccc4)c3C2=O)C(=O)N1 (stereo not given) ?
Reply text: 217 to 218 °C

Inquiry: What melting point value was documented for this compound, COC(=O)c1ccc(OCCCN(C(C)=O)c2ccc(Cl)cc2)cc1 ?
Reply text: 68 to 69 °C

Inquiry: What melting point value was documented for this compound, Cc1nn(C)c(F)c1C(=O)Nc1cccc2c1CCC2(C)C ?
Reply text: 138 °C

Inquiry: What melting point value was documented for this compound, O=C1CCC(N2C(=O)c3cccc(CNC(=O)c4ccc(F)c(C(F)(F)F)c4)c3C2=O)C(=O)N1 (stereo not given) ?
Reply text: 171 to 173 °C

Inquiry: What melting point value was documented for this compound, O=c1[nH]c2ccccc2n1CCN1CCN(C(c2ccccc2)c2ccccc2)CC1 ?
Reply text: 218 °C

Inquiry: What melting point value was documented for this compound, COc1cc(O)cc2c1-c1c(O)cccc1C2=O ?
Reply text: 71 to 72 °C

Inquiry: What melting point value was documented for this compound, Cc1ccc(-c2ccc3c(c2)C=C(C(=O)O)CC3)cc1 ?
Reply text: 230 to 231 °C

---

Quick reference for melting point among some compounds

CCOC(=O)c1cc(-c2nnn(C)n2)c(-c2ccc(F)cc2)s1 = 108 to 110 °C

Inquiry: What melting point value was documented for this compound, CCCCCCCCCCCCCCCCOCC1=CCCO1 ?
Reply text: 30.5 to 31.5 °C

Inquiry: What melting point value was documented for this compound, CCCCCCCCCC=[N+]([O-])CCCCCCCCCC ?
Reply text: 63 to 65 °C

Inquiry: What melting point value was documented for this compound, COc1cc(OCc2ccccn2)ccc1C=O ?
Reply text: 93.6 °C

Inquiry: What melting point value was documented for this compound, C1=CNc2ccccc2C=N1 ?
Reply text: 165 to 167 °C

Inquiry: What melting point value was documented for this compound, CC1(C)N=C(c2ccccc2Cl)c2cc(N)ccc2-n2cnnc21 ?
Reply text: 264 °C

Inquiry: What melting point value was documented for this compound, CC(=O)CCN1CCC(Nc2nc3ccccc3n2Cc2ccc(F)cc2)CC1 ?
Reply text: 131 °C

Inquiry: What melting point value was documented for this compound, CSc1ccc2c(=O)cc(C(=O)N[C@H]3CCN(C(=O)c4cc(C(F)(F)F)cc(C(F)(F)F)c4)[C@H](Cc4ccc(Cl)cc4)C3)oc2c1 ?
Reply text: 137 to 140 °C

Inquiry: What melting point value was documented for this compound, COC(=O)c1oc2ccc(Cl)cc2c1-c1ccccc1C(F)(F)F ?
Reply text: 205 to 208 °C
